# Tested on: ATP;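 note: ATP exposure 15 min at 22 °C before imaging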
# Test: switch fluorescence ratio, 500 uM ATP over buffer (Cy3 cluster intensity, sum of 5 cycles each) (fold (ratio)); higher = stronger signal-on switching upon ATP binding; sequences stand for … in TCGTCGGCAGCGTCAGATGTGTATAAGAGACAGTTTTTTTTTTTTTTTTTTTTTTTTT…TC
# Experimental conditions: aptamer strand: ATP DNA aptamer (quencher-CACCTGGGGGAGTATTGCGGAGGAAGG + anchor), 100 nM annealed; ATP concentration: 500 uM
Give switch fluorescence ratio for every item shown.

Record TTTTTCTATT , field switch fluorescence ratio: 0.988

Consider GGGTCCGGTC . Its measured switch fluorescence ratio is 1.01

Value of measured switch fluorescence ratio for the entry CGGGAGGAGG : 1

The value of switch fluorescence ratio measured for the sequence GGTTGCTAGG turned out to be 0.992

# switch fluorescence ratio of TAAAACTTTT = 1.02

Please fill in: switch fluorescence ratio reported for GGTGTGCACC = 1

For record GCGGACACGC the listed switch fluorescence ratio is 1.02

The value of switch fluorescence ratio measured for the sequence ATTGGGTAT turned out to be 0.988

Kindly note the recorded switch fluorescence ratio for CCCCGAGCCG , which is 1.02

GAATAAAAAC has a reported switch fluorescence ratio of 1.01

Note to self: switch fluorescence ratio recorded for TGCTTAGTC was 1.01

The reported value for TGGGTTTTCA in terms of switch fluorescence ratio is 0.984

Sample GGGCTGAAGG ; switch fluorescence ratio observed: 1

GET /value?item= AGATAGCAGT &field=switch fluorescence ratio returns 1.02

Entry CTGGTTGTCT — recorded switch fluorescence ratio = 1.01

switch fluorescence ratio recorded for this sequence, TGATGAAATT , is 1.02
